assay: Toxicity in ddY mouse assessed as death time at 1.1 nmol dosed via intracerebroventricular injection; type: organism-based; settings: in vivo, icv_or_intrathecal
measure.name: Time

Given item "C=C(C)[C@H]1CN[C@H](C(=O)O)[C@H]1CC(=O)O" , the value recorded as its Time is 15 to 30 min
